These data points were gathered from paper PMC9781268.

experiment.summary: Parallel artificial membrane permeability assay, gastrointestinal (PAMPA-GI / PAMPA-GTI)
condition.parameters: absorbed fraction; soybean L-α-phosphatidylcholine membrane
assay.metric: PAMPA-GI Fa Exp (%)
Record the value in %, omitting the unit from your answer.

Field request: PAMPA-GI Fa Exp | item: Cc1c(NC(=O)C(C)c2ccc(-c3ccccc3)c(F)c2)c(=O)n(-c2ccccc2)n1C (stereo not shown)
97.49

Reported PAMPA-GI Fa Exp for Cc1c(NC(=O)C(C)c2ccc(CC(C)C)cc2)c(=O)n(-c2ccccc2)n1C (stereo not shown) : what is it?
99.71

# query: PAMPA-GI Fa Exp of entry Cc1c(NC(=O)Cc2ccc(-c3ccccc3)cc2)c(=O)n(-c2ccccc2)n1C
98.47

Given Cc1c(N(C)C(=O)C(C)c2ccc(-c3ccccc3)c(F)c2)c(=O)n(-c2ccccc2)n1C (stereo not shown) , state its recorded PAMPA-GI Fa Exp.
97.91
